Test: Urinary excretion study in rats after oral NS, SF or CNS (LC–MS/MS)
Type: in vivo
Details: rat urine, oral CNS 110 mg/kg, 24 h
Procedure: The animal room was set at constant temperature of 20 ± 2 °C with humidity of 50 ± 20% and 12/12 h light/dark cycle. Eighteen male rats were fasted for 12 h before starting the experiment. […] The urine volume was recorded and the dry feces were measured for each collection period. […] The accumulative excretion percentage was calculated for each analyte as follows. […]
recorded-metric: Accumulative excretion percentage (%)
Numeric answer only, unit % assumed.

What measured Accumulative excretion percentage goes with CC(C)=CCC[C@](C)(O[C@@H]1O[C@H](CO[C@@H]2O[C@H](CO)[C@@H](O)[C@H](O)[C@H]2O)[C@@H](O)[C@H](O)[C@H]1O)[C@H]1CC[C@]2(C)[C@@H]1[C@H](O)C[C@@H]1[C@@]3(C)CC[C@H](O[C@@H]4O[C@H](CO)[C@@H](O)[C@H](O)[C@H]4O[C@@H]4O[C@H](CO)[C@@H](O)[C@H](O)[C@H]4O)C(C)(C)[C@@H]3CC[C@]12C [ginsenoside Rb1] ?
0.023

What measured Accumulative excretion percentage goes with CC(C)=CCC[C@](C)(O[C@@H]1O[C@H](CO)[C@@H](O)[C@H](O)[C@H]1O)[C@H]1CC[C@]2(C)[C@@H]1[C@H](O)C[C@@H]1[C@@]3(C)CC[C@H](O[C@@H]4O[C@H](CO)[C@@H](O)[C@H](O)[C@H]4O[C@@H]4O[C@H](CO)[C@@H](O)[C@H](O)[C@H]4O)C(C)(C)[C@@H]3CC[C@]12C [ginsenoside Rd] ?
0.014

What measured Accumulative excretion percentage goes with CC(C)=CCC[C@](C)(O[C@@H]1O[C@H](CO)[C@@H](O)[C@H](O)[C@H]1O)[C@H]1CC[C@]2(C)[C@@H]1[C@H](O)C[C@@H]1[C@@]3(C)CC[C@H](O)C(C)(C)[C@@H]3[C@@H](O[C@@H]3O[C@H](CO)[C@@H](O)[C@H](O)[C@H]3O)C[C@]12C [ginsenoside Rg1] ?
0.263

What measured Accumulative excretion percentage goes with CC(C)=CCC[C@](C)(O[C@@H]1O[C@H](CO)[C@@H](O)[C@H](O)[C@H]1O)[C@H]1CC[C@]2(C)[C@@H]1[C@H](O)C[C@@H]1[C@@]3(C)CC[C@H](O)C(C)(C)[C@@H]3[C@@H](O[C@@H]3O[C@H](CO)[C@@H](O)[C@H](O)[C@H]3O[C@@H]3O[C@@H](C)[C@H](O)[C@@H](O)[C@H]3O)C[C@]12C [ginsenoside Re] ?
0.081

---

Answer each item with its documented Excretion amount.
test: Fecal excretion study in rats after oral NS, SF or CNS (LC–MS/MS); format: in vivo; conditions: rat feces, oral NS 60 mg/kg, 4 h
Please don't drop the unit; write it after the number.

What measured Excretion amount goes with CC(C)=CCC[C@](C)(O[C@@H]1O[C@H](CO)[C@@H](O)[C@H](O)[C@H]1O)[C@H]1CC[C@]2(C)[C@@H]1[C@H](O)C[C@@H]1[C@@]3(C)CC[C@H](O)C(C)(C)[C@@H]3[C@@H](O[C@@H]3O[C@H](CO)[C@@H](O)[C@H](O)[C@H]3O)C[C@]12C [ginsenoside Rg1] ?
21.063 ± 5.410 µg

What measured Excretion amount goes with CC(C)=CCC[C@](C)(O[C@@H]1O[C@H](CO)[C@@H](O)[C@H](O)[C@H]1O)[C@H]1CC[C@]2(C)[C@@H]1[C@H](O)C[C@@H]1[C@@]3(C)CC[C@H](O[C@@H]4O[C@H](CO)[C@@H](O)[C@H](O)[C@H]4O[C@@H]4O[C@H](CO)[C@@H](O)[C@H](O)[C@H]4O)C(C)(C)[C@@H]3CC[C@]12C [ginsenoside Rd] ?
10.755 ± 3.385 µg

What measured Excretion amount goes with CC(C)=CCC[C@](C)(O[C@@H]1O[C@H](CO[C@@H]2O[C@H](CO)[C@@H](O)[C@H](O)[C@H]2O)[C@@H](O)[C@H](O)[C@H]1O)[C@H]1CC[C@]2(C)[C@@H]1[C@H](O)C[C@@H]1[C@@]3(C)CC[C@H](O[C@@H]4O[C@H](CO)[C@@H](O)[C@H](O)[C@H]4O[C@@H]4O[C@H](CO)[C@@H](O)[C@H](O)[C@H]4O)C(C)(C)[C@@H]3CC[C@]12C [ginsenoside Rb1] ?
15.357 ± 4.697 µg

What measured Excretion amount goes with CC(C)=CCC[C@](C)(O[C@@H]1O[C@H](CO)[C@@H](O)[C@H](O)[C@H]1O)[C@H]1CC[C@]2(C)[C@@H]1[C@H](O)C[C@@H]1[C@@]3(C)CC[C@H](O)C(C)(C)[C@@H]3[C@@H](O[C@@H]3O[C@H](CO)[C@@H](O)[C@H](O)[C@H]3O[C@@H]3O[C@@H](C)[C@H](O)[C@@H](O)[C@H]3O)C[C@]12C [ginsenoside Re] ?
4.585 ± 1.408 µg

---

Assay: Urinary excretion study in rats after oral NS, SF or CNS (LC–MS/MS)
Assay type: in vivo
Details: rat urine, oral CNS 110 mg/kg, 8 h
Procedure: The animal room was set at constant temperature of 20 ± 2 °C with humidity of 50 ± 20% and 12/12 h light/dark cycle. Eighteen male rats were fasted for 12 h before starting the experiment. […] The urine volume was recorded and the dry feces were measured for each collection period. […] The accumulative excretion percentage was calculated for each analyte as follows. […]
Answer each item with its documented Accumulative excretion amount.
Numeric answer only, unit µg assumed.

What measured Accumulative excretion amount goes with CC(C)=CCC[C@](C)(O[C@@H]1O[C@H](CO[C@@H]2O[C@H](CO)[C@@H](O)[C@H](O)[C@H]2O)[C@@H](O)[C@H](O)[C@H]1O)[C@H]1CC[C@]2(C)[C@@H]1[C@H](O)C[C@@H]1[C@@]3(C)CC[C@H](O[C@@H]4O[C@H](CO)[C@@H](O)[C@H](O)[C@H]4O[C@@H]4O[C@H](CO)[C@@H](O)[C@H](O)[C@H]4O)C(C)(C)[C@@H]3CC[C@]12C [ginsenoside Rb1] ?
0.339

What measured Accumulative excretion amount goes with CC(C)=CCC[C@](C)(O[C@@H]1O[C@H](CO)[C@@H](O)[C@H](O)[C@H]1O)[C@H]1CC[C@]2(C)[C@@H]1[C@H](O)C[C@@H]1[C@@]3(C)CC[C@H](O[C@@H]4O[C@H](CO)[C@@H](O)[C@H](O)[C@H]4O[C@@H]4O[C@H](CO)[C@@H](O)[C@H](O)[C@H]4O)C(C)(C)[C@@H]3CC[C@]12C [ginsenoside Rd] ?
0.029

What measured Accumulative excretion amount goes with CC(C)=CCC[C@](C)(O[C@@H]1O[C@H](CO)[C@@H](O)[C@H](O)[C@H]1O)[C@H]1CC[C@]2(C)[C@@H]1[C@H](O)C[C@@H]1[C@@]3(C)CC[C@H](O)C(C)(C)[C@@H]3[C@@H](O[C@@H]3O[C@H](CO)[C@@H](O)[C@H](O)[C@H]3O[C@@H]3O[C@@H](C)[C@H](O)[C@@H](O)[C@H]3O)C[C@]12C [ginsenoside Re] ?
0.289

What measured Accumulative excretion amount goes with CC(C)=CCC[C@](C)(O[C@@H]1O[C@H](CO)[C@@H](O)[C@H](O)[C@H]1O)[C@H]1CC[C@]2(C)[C@@H]1[C@H](O)C[C@@H]1[C@@]3(C)CC[C@H](O)C(C)(C)[C@@H]3[C@@H](O[C@@H]3O[C@H](CO)[C@@H](O)[C@H](O)[C@H]3O)C[C@]12C [ginsenoside Rg1] ?
4.725

---

Answer each item with its documented Excretion amount.
experiment: Urinary excretion study in rats after oral NS, SF or CNS (LC–MS/MS); format: in vivo; details: rat urine, oral CNS 110 mg/kg, 8 h
Numeric answer only, unit µg assumed.

What measured Excretion amount goes with CC(C)=CCC[C@](C)(O[C@@H]1O[C@H](CO)[C@@H](O)[C@H](O)[C@H]1O)[C@H]1CC[C@]2(C)[C@@H]1[C@H](O)C[C@@H]1[C@@]3(C)CC[C@H](O[C@@H]4O[C@H](CO)[C@@H](O)[C@H](O)[C@H]4O[C@@H]4O[C@H](CO)[C@@H](O)[C@H](O)[C@H]4O)C(C)(C)[C@@H]3CC[C@]12C [ginsenoside Rd] ?
0.010

What measured Excretion amount goes with CC(C)=CCC[C@](C)(O[C@@H]1O[C@H](CO[C@@H]2O[C@H](CO)[C@@H](O)[C@H](O)[C@H]2O)[C@@H](O)[C@H](O)[C@H]1O)[C@H]1CC[C@]2(C)[C@@H]1[C@H](O)C[C@@H]1[C@@]3(C)CC[C@H](O[C@@H]4O[C@H](CO)[C@@H](O)[C@H](O)[C@H]4O[C@@H]4O[C@H](CO)[C@@H](O)[C@H](O)[C@H]4O)C(C)(C)[C@@H]3CC[C@]12C [ginsenoside Rb1] ?
0.212

What measured Excretion amount goes with CC(C)=CCC[C@](C)(O[C@@H]1O[C@H](CO)[C@@H](O)[C@H](O)[C@H]1O)[C@H]1CC[C@]2(C)[C@@H]1[C@H](O)C[C@@H]1[C@@]3(C)CC[C@H](O)C(C)(C)[C@@H]3[C@@H](O[C@@H]3O[C@H](CO)[C@@H](O)[C@H](O)[C@H]3O[C@@H]3O[C@@H](C)[C@H](O)[C@@H](O)[C@H]3O)C[C@]12C [ginsenoside Re] ?
0.072

What measured Excretion amount goes with CC(C)=CCC[C@](C)(O[C@@H]1O[C@H](CO)[C@@H](O)[C@H](O)[C@H]1O)[C@H]1CC[C@]2(C)[C@@H]1[C@H](O)C[C@@H]1[C@@]3(C)CC[C@H](O)C(C)(C)[C@@H]3[C@@H](O[C@@H]3O[C@H](CO)[C@@H](O)[C@H](O)[C@H]3O)C[C@]12C [ginsenoside Rg1] ?
1.169
